Reported viability, T/C values for the following compounds.
- Test system: T-47D spheroids with HUVEC/MSC, viability
- PROCEDURE_SUMMARY: Anticancer human tumor T-47D cell line growth inhibition [PI3K];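 also: spheroids exposed to agents for seven days before reading; percent of DMSO vehicle control luminescence so 100% = untreated growth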
- CONDITION_DESCRIPTION: second compound 10 µM; first compound 0.0316 µM; stronger effect = lower value
- From the text: Combinatorial screen of targeted agents with the PI3K inhibitors inavolisib, alpelisib, duvelisib, and copanlisib in multi-cell type tumor spheroids A high-throughput screen of multi-cell type tumor spheroids was designed to identify active combinations of targeted small molecules and PI3K pathway inhibitors. […] Compounds. […] If the clinical Cmax for an agent had not been determined, the highest concentration tested was 10 microM. […]
The reply should be a number in %, with the unit left off.

// solved cases for viability, T/C follow
COMPOUND	TARGET_ENTITY	MEASUREMENT_LABEL	UNITS_LABEL	OBSERVED_MEASUREMENT
CNC(=O)c1ccc(N2C(=S)N(c3ccc(C#N)c(C(F)(F)F)c3)C(=O)C2(C)C)cc1F + CC(Nc1ncnc2nc[nH]c12)c1cc2cccc(Cl)c2c(=O)n1-c1ccccc1	T-47D spheroids with HUVEC/MSC, viability	viability, T/C	%	96.8
Cn1ncnc1[C@H]1c2n[nH]c(=O)c3cc(F)cc(c23)N[C@@H]1c1ccc(F)cc1 + Cc1nc(NC(=O)N2CCCC2C(N)=O)sc1-c1ccnc(C(C)(C)C(F)(F)F)c1	T-47D spheroids with HUVEC/MSC, viability	viability, T/C	%	32.9
Cn1ncc(Cl)c1-c1cc(C(=O)NC(CN)Cc2cccc(F)c2)sc1Cl (stereo unspecified) + CC(Nc1ncnc2nc[nH]c12)c1cc2cccc(Cl)c2c(=O)n1-c1ccccc1	T-47D spheroids with HUVEC/MSC, viability	viability, T/C	%	97.8
Cn1nccc1Nc1nccc(-c2ccn(C(CO)c3ccc(Cl)c(F)c3)c(=O)c2)n1 (stereo unspecified) + Cc1nc(NC(=O)N2CCCC2C(N)=O)sc1-c1ccnc(C(C)(C)C(F)(F)F)c1	T-47D spheroids with HUVEC/MSC, viability	viability, T/C	%	39.5

Give the value of viability, T/C reported for the following: CCCS(=O)(=O)Nc1ccc(F)c(C(=O)c2c[nH]c3ncc(-c4ccc(Cl)cc4)cc23)c1F + CC(Nc1ncnc2nc[nH]c12)c1cc2cccc(Cl)c2c(=O)n1-c1ccccc1
84.7

Return reported viability, T/C. Input compound: C[C@@H](NC(=O)c1ncnc(N)c1Cl)c1ncc(C(=O)Nc2cc(C(F)(F)F)c(Cl)cn2)s1 + Cc1nc(NC(=O)N2CCCC2C(N)=O)sc1-c1ccnc(C(C)(C)C(F)(F)F)c1
36.7
